- Test Target: mouse TAAR6 (Mus musculus, UniProt Q5QD13)
- Construct: bovine rhodopsin N-terminal 20 amino acids (Rho tag)
- Sequence (Q5QD13 1-345): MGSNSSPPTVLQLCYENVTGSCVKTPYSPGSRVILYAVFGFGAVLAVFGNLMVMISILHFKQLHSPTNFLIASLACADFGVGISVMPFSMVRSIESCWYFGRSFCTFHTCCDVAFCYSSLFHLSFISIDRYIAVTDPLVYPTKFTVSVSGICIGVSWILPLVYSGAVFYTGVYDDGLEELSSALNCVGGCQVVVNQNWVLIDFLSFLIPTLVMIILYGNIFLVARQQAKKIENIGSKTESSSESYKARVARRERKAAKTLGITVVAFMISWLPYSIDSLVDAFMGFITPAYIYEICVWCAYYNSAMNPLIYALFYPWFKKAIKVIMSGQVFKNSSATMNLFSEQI
- Assay Summary: Cell-based receptor activation reporter assay (SEAP / Dual-Glo luciferase)
- Procedure: Fluorescence was measured with a BioTek Microplate reader.
Readout: EC50

[in] Recorded EC50 of CN(C)C1CCCCC1 [N,N-dimethylcyclohexylamine] , please.
[out] ~50 µM

* * *

- Test Target: mouse TAAR8a (Mus musculus, UniProt Q5QD07)
- Construct: bovine rhodopsin N-terminal 20 amino acids (Rho tag)
- Sequence (Q5QD07 whole entry): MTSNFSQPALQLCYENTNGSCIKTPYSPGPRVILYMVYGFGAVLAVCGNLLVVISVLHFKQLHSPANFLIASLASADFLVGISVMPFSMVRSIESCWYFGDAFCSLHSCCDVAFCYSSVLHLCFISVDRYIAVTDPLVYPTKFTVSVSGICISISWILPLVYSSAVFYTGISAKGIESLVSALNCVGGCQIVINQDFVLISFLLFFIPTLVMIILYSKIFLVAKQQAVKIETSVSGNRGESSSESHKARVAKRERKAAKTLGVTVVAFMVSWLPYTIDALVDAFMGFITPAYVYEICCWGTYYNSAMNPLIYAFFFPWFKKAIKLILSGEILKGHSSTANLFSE
- Assay Summary: Cell-based receptor activation reporter assay (SEAP / Dual-Glo luciferase)
Readout: EC50

[in] For the compound C1CCNCC1 [Piperidine, piperidine] , what EC50 is on record?
[out] ~300 µM

* * *

Reported pEC50 values for a set of compounds
- Test Target: (UniProt Z9G6W3R3V9)
- Assay Summary: Cell-based receptor activation reporter assay (SEAP / Dual-Glo luciferase)
- Condition Set: coelacanth TARL1
Note on pEC50: it is the negative log10 of concentration, concentration in mol/L.

{"columns": ["Compound", "Test Target", "pEC50"],
 "data": [
  ["NCCc1c[nH]c2ccccc12 [Tryptamine, tryptamine]", "(UniProt Z9G6W3R3V9)", 4.74]
]}

Let's switch to this compound now.
[in] Given the compound NCCc1c[nH]c2ccc(O)cc12 [Serotonin, serotonin] , what is its reported pEC50?
[out] 7.00

* * *

- Test Target: shark TAARS1b (Chiloscyllium punctatum, UniProt A0A401S5C1)
- Sequence (A0A401S5C1 entry or part of it): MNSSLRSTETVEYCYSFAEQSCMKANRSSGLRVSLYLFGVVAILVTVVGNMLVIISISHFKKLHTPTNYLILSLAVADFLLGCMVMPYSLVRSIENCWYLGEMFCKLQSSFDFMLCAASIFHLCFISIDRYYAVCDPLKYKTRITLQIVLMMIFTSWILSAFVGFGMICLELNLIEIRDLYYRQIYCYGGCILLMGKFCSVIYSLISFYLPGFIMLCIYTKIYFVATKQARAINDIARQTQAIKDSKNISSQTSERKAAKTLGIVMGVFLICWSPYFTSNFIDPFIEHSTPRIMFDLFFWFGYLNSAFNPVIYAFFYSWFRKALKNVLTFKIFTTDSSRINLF
- Assay Summary: Cell-based receptor activation reporter assay (SEAP / Dual-Glo luciferase)
The following molecules are listed with their measured EC50 values.
Record the value in µM, omitting the unit from your answer.

{"columns": ["Entry Smiles", "EC50 / µM"],
 "data": [
  ["CN1CCCCC1", 17.6],
  ["CC(C)N(C)C", 40.3]
]}

// switching to the query molecule
[in] API: value(readout= EC50, system= shark TAARS1b (Chiloscyllium punctatum, UniProt A0A401S5C1), query= CN(C)C )
[out] 1.4

* * *

- Test Target: coelacanth TAARC1b (Latimeria chalumnae, UniProt H3A8V0)
- Assay Summary: Cell-based receptor activation reporter assay (SEAP / Dual-Glo luciferase)
Readout: EC50

[in] I am curious: what EC50 value has been reported for NCCc1c[nH]c2ccccc12 ?
[out] ~150 µM

* * *

- Test Target: UniProtKB P97288
- Sequence (P97288 whole entry): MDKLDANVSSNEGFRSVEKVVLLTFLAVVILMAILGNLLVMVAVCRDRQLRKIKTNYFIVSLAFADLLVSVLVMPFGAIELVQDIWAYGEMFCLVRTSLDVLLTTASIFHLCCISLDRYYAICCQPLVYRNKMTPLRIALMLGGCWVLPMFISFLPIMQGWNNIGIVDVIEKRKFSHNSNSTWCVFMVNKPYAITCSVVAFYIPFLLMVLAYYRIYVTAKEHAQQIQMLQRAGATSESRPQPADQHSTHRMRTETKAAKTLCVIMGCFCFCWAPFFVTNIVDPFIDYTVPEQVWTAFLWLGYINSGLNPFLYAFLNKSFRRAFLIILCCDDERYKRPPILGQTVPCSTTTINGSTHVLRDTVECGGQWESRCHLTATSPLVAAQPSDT
- Assay Summary: cell-based
Readout: EC50 (µM)
Your answer is read as µM, so omit the unit and give the number.

[in] Reported EC50, compound COc1ccc2[nH]cc(CCN)c2c1 : ____
[out] 0.09

* * *

- Test Target: mouse TAAR5 (Mus musculus, UniProt Q5QD14)
- Construct: bovine rhodopsin N-terminal 20 amino acids (Rho tag)
- Sequence (Q5QD14 whole entry): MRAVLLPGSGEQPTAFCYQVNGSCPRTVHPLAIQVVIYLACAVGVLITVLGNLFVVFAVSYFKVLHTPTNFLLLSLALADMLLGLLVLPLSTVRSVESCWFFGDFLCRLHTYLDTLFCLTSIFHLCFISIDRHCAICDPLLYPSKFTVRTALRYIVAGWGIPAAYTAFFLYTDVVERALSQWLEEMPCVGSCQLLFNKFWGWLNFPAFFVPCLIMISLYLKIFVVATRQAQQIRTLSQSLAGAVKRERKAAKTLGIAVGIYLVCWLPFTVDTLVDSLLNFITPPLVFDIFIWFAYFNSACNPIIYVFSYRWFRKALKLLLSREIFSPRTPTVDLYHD
- Assay Summary: Cell-based receptor activation reporter assay (SEAP / Dual-Glo luciferase)
Readout: pEC50
Reminder that pEC50 means the negative base-10 logarithm of the concentration expressed in mol/L.

[in] Dear colleague, I am looking for the recorded pEC50 of the following compound: CN1CCCCC1
[out] 5.09

* * *

- Test Target: spotted gar TARL1 (Lepisosteus oculatus, UniProt W5NNR6)
- Sequence (W5NNR6 entry or part of it): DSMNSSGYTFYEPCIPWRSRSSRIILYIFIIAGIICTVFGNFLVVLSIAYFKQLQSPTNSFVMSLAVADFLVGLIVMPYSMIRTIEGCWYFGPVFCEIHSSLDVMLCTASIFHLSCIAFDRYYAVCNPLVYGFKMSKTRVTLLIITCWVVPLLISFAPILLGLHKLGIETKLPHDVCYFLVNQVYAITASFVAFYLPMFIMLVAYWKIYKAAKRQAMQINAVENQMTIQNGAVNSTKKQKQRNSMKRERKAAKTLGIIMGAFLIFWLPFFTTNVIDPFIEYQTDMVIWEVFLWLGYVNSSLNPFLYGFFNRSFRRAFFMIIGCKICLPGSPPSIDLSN
- Assay Summary: Cell-based receptor activation reporter assay (SEAP / Dual-Glo luciferase)
Readout: EC50
In your response, the unit should come after the numeric value.

[in] Find the recorded EC50 belonging to NCCc1c[nH]c2ccccc12 and report it.
[out] 3.1 µM

* * *

- Test Target: catfish TAAR13g (Ictalurus punctatus)
- Sequence (A0A2D0SG81 entry or part of it): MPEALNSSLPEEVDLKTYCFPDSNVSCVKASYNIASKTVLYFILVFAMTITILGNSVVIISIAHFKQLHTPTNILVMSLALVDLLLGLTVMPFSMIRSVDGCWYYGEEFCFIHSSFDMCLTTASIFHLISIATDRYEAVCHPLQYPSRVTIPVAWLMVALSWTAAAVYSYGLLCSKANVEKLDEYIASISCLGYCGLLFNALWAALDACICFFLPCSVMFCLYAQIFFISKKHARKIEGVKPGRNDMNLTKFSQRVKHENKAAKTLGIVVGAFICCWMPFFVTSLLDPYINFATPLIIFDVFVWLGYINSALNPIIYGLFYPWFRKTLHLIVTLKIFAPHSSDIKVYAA
- Assay Summary: Cell-based receptor activation reporter assay (SEAP / Dual-Glo luciferase)
Readout: EC50

[in] Look up EC50: NCCc1c[nH]c2ccccc12
[out] ~30 µM

* * *

List of EC50 values.
- Test Target: TARLL1b (Petromyzon marinus)
- Sequence (A0AAJ7TCG4 entry or part of it): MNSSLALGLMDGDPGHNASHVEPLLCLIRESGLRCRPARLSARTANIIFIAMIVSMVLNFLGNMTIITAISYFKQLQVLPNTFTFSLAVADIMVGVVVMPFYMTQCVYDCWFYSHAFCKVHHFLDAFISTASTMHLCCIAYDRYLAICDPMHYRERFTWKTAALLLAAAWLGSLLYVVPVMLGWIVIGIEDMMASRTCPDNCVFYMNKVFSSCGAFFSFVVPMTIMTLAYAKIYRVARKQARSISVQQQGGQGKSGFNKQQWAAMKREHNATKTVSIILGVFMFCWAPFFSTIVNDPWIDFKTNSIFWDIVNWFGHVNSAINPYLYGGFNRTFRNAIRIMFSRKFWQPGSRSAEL
- Assay Summary: Cell-based receptor activation reporter assay (SEAP / Dual-Glo luciferase)
- Condition Set: TARLL1b
- Experimental: Fluorescence was measured with a BioTek Microplate reader.

Known results for compounds:
{"columns": ["Entry Smiles", "EC50"],
 "data": [
  ["Cn1ccc2ccccc21", "162 µM"],
  ["Cc1ccc2[nH]ccc2c1", "8.9 µM"],
  ["Cc1ccc2cc[nH]c2c1", "9.1 µM"],
  ["Cc1c[nH]c2ccccc12", "6.6 µM"],
  ["c1ccc2[nH]ccc2c1", "18.9 µM"]
]}

[in] // returns reported EC50 for input Cc1cccc2cc[nH]c12
[out] 37.8 µM

[in] What do you get for NCCc1c[nH]c2ccc(O)cc12 ?
[out] 0.2 µM

[in] # iterate: NCCc1c[nH]c2ccccc12
[out] ~100 µM

* * *

- Test Target: UniProt:A0A2D0SG84
- Sequence (A0A2D0SG84 entry or part of it): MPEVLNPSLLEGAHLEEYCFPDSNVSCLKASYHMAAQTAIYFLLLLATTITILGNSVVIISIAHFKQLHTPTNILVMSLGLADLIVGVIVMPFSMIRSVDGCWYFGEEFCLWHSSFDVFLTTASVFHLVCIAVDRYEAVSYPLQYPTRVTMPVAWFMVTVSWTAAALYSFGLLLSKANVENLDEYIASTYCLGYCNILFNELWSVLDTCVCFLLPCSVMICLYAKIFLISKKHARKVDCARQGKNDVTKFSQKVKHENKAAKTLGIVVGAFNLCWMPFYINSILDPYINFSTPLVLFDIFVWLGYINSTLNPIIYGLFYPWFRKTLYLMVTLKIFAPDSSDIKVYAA
- Assay Summary: Cell-based receptor activation reporter assay (SEAP / Dual-Glo luciferase)
Readout: EC50
Output should be the measured figure followed by the unit it is expressed in.

[in] Given N=C(N)NCCCCN , state its recorded EC50.
[out] 165 µM

* * *

The following compounds are shown together with reported pEC50 values.
- Test Target: zebrafish TARL1 (Danio rerio, UniProt A0A8M1Q794)
- Sequence (A0A8M1Q794 entry or part of it): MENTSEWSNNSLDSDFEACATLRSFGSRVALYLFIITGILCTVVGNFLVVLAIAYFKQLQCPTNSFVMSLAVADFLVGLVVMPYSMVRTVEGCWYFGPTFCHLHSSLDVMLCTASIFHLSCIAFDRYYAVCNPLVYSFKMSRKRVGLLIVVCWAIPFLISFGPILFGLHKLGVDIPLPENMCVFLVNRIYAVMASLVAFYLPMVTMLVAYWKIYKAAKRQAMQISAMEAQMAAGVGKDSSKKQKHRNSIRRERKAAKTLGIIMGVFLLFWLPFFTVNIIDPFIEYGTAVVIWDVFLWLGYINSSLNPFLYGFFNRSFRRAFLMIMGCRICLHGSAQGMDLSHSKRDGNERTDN
- Assay Summary: Cell-based receptor activation reporter assay (SEAP / Dual-Glo luciferase)
Reminder that pEC50 is minus the log10 of a molar concentration.

{"columns": ["Compound", "Test Target", "pEC50"],
 "data": [
  ["NCCc1c[nH]c2ccc(O)cc12 [Serotonin, serotonin]", "zebrafish TARL1 (Danio rerio, UniProt A0A8M1Q794)", 6.96]
]}

Now turn to the next compound.
[in] Item under review: NCCc1c[nH]c2ccccc12 [Tryptamine, tryptamine] . Reported pEC50?
[out] 7.40

* * *

- Test Target: UniProtKB A0A1U7QEC3
- Assay Summary: cell-based
Readout: EC50
Answer with the value and then the unit.

[in] // EC50 lookup, key: CN(C)C
[out] 2300 nM

* * *

- Test Target: cat TAAR5 (Felis catus, UniProt A0ABI7YAE2)
- Sequence (A0ABI7YAE2 entry or part of it): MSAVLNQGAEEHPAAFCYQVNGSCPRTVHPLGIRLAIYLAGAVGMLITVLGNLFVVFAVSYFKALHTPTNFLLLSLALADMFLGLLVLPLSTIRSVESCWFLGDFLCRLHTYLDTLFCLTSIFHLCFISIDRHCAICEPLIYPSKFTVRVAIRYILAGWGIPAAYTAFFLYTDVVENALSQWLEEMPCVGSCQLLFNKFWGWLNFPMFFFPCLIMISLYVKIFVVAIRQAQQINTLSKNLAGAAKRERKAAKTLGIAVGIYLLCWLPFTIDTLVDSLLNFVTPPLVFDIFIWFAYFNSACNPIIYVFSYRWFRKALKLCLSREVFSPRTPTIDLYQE
- Assay Summary: Cell-based receptor activation reporter assay (SEAP / Dual-Glo luciferase)
- Procedure: Fluorescence was measured with a BioTek Microplate reader.
Readout: pEC50
Bear in mind: pEC50 is minus log10 of a mol/L concentration; give just that figure.

[in] Suppose we examine the molecule CN(C)C ; what pEC50 value has been reported?
[out] 5.16

* * *

- Test Target: rat TAAR9 (Rattus norvegicus, UniProt Q923Y6)
- Construct: bovine rhodopsin N-terminal 20 amino acids (Rho tag)
- Sequence (Q923Y6 1-338): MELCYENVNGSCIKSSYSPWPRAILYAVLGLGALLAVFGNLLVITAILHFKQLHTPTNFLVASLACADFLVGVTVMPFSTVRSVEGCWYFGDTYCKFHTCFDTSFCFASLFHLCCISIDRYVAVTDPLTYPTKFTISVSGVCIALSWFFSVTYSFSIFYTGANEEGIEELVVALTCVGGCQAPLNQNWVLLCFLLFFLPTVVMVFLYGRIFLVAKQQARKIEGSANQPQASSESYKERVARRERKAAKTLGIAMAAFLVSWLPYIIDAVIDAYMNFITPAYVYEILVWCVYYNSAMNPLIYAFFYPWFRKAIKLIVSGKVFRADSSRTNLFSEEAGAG
- Assay Summary: Cell-based receptor activation reporter assay (SEAP / Dual-Glo luciferase)
Readout: EC50

[in] Which EC50 is reported for this compound? CN(C)C1CCCCC1
[out] ~30 µM

* * *

- Test Target: shark TARL2 (Chiloscyllium punctatum)
- Sequence (A0A401SGR3 entry or part of it): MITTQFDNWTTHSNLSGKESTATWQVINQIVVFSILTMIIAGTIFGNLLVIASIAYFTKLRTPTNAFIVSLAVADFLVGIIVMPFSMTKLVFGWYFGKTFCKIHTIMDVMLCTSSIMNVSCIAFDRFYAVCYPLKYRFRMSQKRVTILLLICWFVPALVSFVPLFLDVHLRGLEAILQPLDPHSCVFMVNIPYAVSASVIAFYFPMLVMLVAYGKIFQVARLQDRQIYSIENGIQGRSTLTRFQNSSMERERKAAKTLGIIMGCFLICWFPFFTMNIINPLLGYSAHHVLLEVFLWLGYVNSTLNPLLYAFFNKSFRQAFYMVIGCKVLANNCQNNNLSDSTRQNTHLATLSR
- Assay Summary: Cell-based receptor activation reporter assay (SEAP / Dual-Glo luciferase)
Readout: EC50

[in] Hello, I am looking for reported EC50 with shark TARL2 (Chiloscyllium punctatum) for NCCc1c[nH]c2ccccc12 [Tryptamine, tryptamine] . Could you help?
[out] ~40 µM

* * *

- Test Target: mouse TAAR1 (Mus musculus)
- Sequence (Q923Y8 whole entry): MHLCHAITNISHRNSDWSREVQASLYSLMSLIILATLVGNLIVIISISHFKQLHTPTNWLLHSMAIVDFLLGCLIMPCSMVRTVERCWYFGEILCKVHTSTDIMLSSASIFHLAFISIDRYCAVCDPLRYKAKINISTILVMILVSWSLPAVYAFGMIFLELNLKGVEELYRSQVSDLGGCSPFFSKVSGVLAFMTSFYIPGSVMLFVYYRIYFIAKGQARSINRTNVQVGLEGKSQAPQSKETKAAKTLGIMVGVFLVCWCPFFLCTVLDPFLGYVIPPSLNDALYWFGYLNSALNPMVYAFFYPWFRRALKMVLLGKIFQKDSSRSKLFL
- Assay Summary: cell-based
- Condition Set: mTAAR1
Readout: pEC50
# pEC50 = -log10(concentration in molar units)

[in] For NCCc1c[nH]c2ccc(O)cc12 , what is its reported pEC50?
[out] 4.84

* * *

- Test Target: UniProt A0AAJ7T9R0
- Sequence (A0AAJ7T9R0 entry or part of it): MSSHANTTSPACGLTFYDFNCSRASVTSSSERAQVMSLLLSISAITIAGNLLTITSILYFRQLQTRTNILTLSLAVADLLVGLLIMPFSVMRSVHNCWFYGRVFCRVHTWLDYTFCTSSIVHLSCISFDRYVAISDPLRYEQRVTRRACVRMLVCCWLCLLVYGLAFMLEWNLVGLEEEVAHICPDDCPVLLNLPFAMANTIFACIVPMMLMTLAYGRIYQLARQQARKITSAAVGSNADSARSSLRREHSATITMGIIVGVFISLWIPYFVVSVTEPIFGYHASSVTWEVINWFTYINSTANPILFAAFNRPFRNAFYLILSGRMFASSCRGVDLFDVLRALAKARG
- Assay Summary: Cell-based receptor activation reporter assay (SEAP / Dual-Glo luciferase)
- Condition Set: TARLL4a
pEC50: −log10 of the molar value.
Respond with 1 for pEC50 values of 4 and above, -1 for values below.

These solved cases illustrate the format of a correct answer.
{"columns": ["Entry Smiles", "Assigned Class"],
 "data": [
  ["CCCCCN", 1],
  ["CCCN", -1]
]}

[in] For this compound, is measured pEC50 4 or higher? CSCCCN
[out] 1

[in] Query CC(C)CCN next
[out] -1
